src = PubChem BioAssay

# ASSAY_METHOD_TEXT: H69AR cell proliferation blockers – human, duplicate replicates, primary screen (AID 580);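 further: 100% = mean luminescence of untreated wells and 0% = no signal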
# RUN_CONDITIONS: H69AR lung tumor cells viability, ATP luminescence, 72 h; at 10 µM; stronger effect = lower value
Each entry below lists one item and its recorded viability value.
Give just the numeric value; % need not be written.

(Q) Name the recorded viability for O=C(Nc1ccncc1)c1cccc(F)c1 .
(A) 92

(Q) Requested field: viability. Item: O=C(Nc1ccc2c(c1)OCCO2)c1cnc2n(c1=O)CCS2
(A) 79.4

(Q) Reported viability for Cn1nnnc1SCC(=O)Nc1ccccc1C(=O)NCc1ccccc1 : what is it?
(A) 90.2

(Q) Please report the recorded viability for O=C(Nc1cccc(F)c1)C1C2C=CC3(CN(CCCN4CCOCC4)C(=O)C13)O2 (centres undefined) .
(A) 103

(Q) Give the measured viability of COC(=O)C1=C(C)NC2=C(C(=O)CCC2)C1c1coc2ccccc2c1=O (centres undefined) .
(A) 93

(Q) Endpoint output: viability of COc1ccccc1NCN1C(=O)CCC1=O . Value?
(A) 82.4

(Q) # query: viability of entry Cc1onc(-c2ccccc2Cl)c1C(=O)N1CCc2ccccc21
(A) 79

(Q) # lookup: viability of CCOC(=O)c1[nH]c(C)c(C(=O)NC)c1C
(A) 98.8

(Q) Looking for the measured viability of COc1ccc(N(CC(=O)O)S(=O)(=O)c2ccc(OC)c(OC)c2)cc1 , can you help?
(A) 90.3

(Q) Consider the molecule O=C(c1ccc(Br)o1)N(Cc1ccccc1)c1ccccn1 and give its measured viability.
(A) 92.9

(Q) Name the reported viability value associated with the molecule Cc1cc(NC(=O)CS(=O)(=O)c2cn(Cc3cccc(F)c3)c3ccccc23)no1
(A) 92.7

(Q) Record request: viability value, item COc1ccccc1NC(=O)N(Cc1ccccc1)c1ccccn1
(A) 85.3

(Q) Query (molecule): CCOC(=O)c1ccc(N=c2sc(C(=O)OC)cc(=O)n2Cc2ccco2)cc1 ; field requested: viability
(A) 1.51

====

# ASSAY_METHOD_TEXT: viability of PTEN-null HCT116 cells – cell-based, HCT116 clonal line, CellTiter-Glo, pilot screen (AID 824);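 further: 0% = 20 µM Hyamine control and 100% = vehicle cell control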
# RUN_CONDITIONS: HCT116 PTEN-deleted viability, 60 h, at 10 µM, stronger effect = lower value
Results filed as inconclusive are left out.
REPORTED_METRIC: viability (%)
Number only, in %; omit the unit.

Known viability results, listed for orientation:
Cc1nnc(NC(=O)CSc2nc3c(c(=O)n2C)SC(C)C3)s1 (centres undefined)	99.6
COc1ccc2oc(C(=O)CCC(=O)O)c(N)c2c1	92.5
O=C(CCn1c(=O)oc2ccccc21)NCCN1CCOCC1	101

(Q) # input compound: Oc1cccc(C=NCc2ccccc2)c1O ; wanted: its viability
(A) 72.2

(Q) Would you kindly share the measured viability for CC(=O)NC(C)c1nc2ccccc2n1C(C)C (centres undefined) ?
(A) 90

(Q) Recorded viability for COc1ccccc1OCC(=O)N(Cc1nc(-c2ccc(Cl)cc2)no1)C(C)C , please?
(A) 82.5

(Q) Param item = CCC(=O)N1c2ccccc2-c2nnc(SC)nc2OC1c1ccc(OC)c(OC)c1 (centres undefined) ; retrieve measured viability.
(A) 94.1

(Q) Reported viability for Cc1onc(-c2ccccc2)c1C(=O)NCc1cccnc1 : what is it?
(A) 95.8

(Q) Dear colleague, I am looking for the recorded viability of the following compound: O=C(Nc1ccc(Cl)cn1)c1cccnc1
(A) 62

(Q) Reported viability, compound Cc1cccc(C2CC(c3ccc(Cl)cc3)Nc3nc(N)nn32)c1 (centres undefined) : ____
(A) 74.9

(Q) What value of measured viability is listed for Cc1c(C)c2ccc(OC3CCCCC3=O)cc2oc1=O (centres undefined) ?
(A) 101

(Q) What viability value was documented for this compound, Cn1c(SCC(=O)c2cc3ccccc3o2)nnc1-c1ccccc1 ?
(A) 96.8

(Q) Look up viability: Cn1c(NC(=O)C2CCCC2)cc(=O)n(C)c1=O
(A) 95.4

(Q) Requested field: viability. Item: CC1(C(=O)NC2CCCCC2)CCC(=O)N1Cc1cccs1 (centres undefined)
(A) 93.7

(Q) Name the reported viability value associated with the compound CC1CCCN(C(=O)C23CCC(C)(C(=O)C2)C3(C)C)C1 (centres undefined)
(A) 102

(Q) Entry COc1ccc(CNC(=O)c2nnn(Cc3ccc(OC)cc3)c2N)cc1 has what viability?
(A) 85.4

(Q) Looking for the measured viability of Cc1c(NS(=O)(=O)c2ccccc2)cc(Cl)c(O)c1C , can you help?
(A) 93.5

(Q) Quick check: viability of Cc1ccc(-n2c3c(cc(C(=O)NC4CCSC4=O)c2=O)C(=O)CC(C)(C)C3)cc1 (centres undefined) ?
(A) 101

(Q) // returns reported viability for input O=P(c1ccccc1)(c1ccccc1)C1CCCO1 (centres undefined)
(A) 91.7

(Q) Report viability for O=C(c1cccc(F)c1)N1CCc2ccccc21 please.
(A) 96

(Q) I am curious: what viability value has been reported for CCCSC1=C(C#N)C(c2cc(OC)ccc2OC)CC(=O)N1 (centres undefined) ?
(A) 92.9

(Q) // lookup viability for CCn1c(C(=O)N2CCC(C(=O)N3CCN(c4ccccn4)CC3)CC2)cc2sccc21
(A) 78.2

(Q) # get_value(readout='viability', item= O=C(CC1Oc2ccc(Cl)cc2NC1=O)NC1CCCCCC1 (centres undefined) )
(A) 102

(Q) State the recorded viability for this entry: CN(C(=O)c1ccco1)c1nnc(C23CC4CC(CC(C4)C2)C3)s1
(A) 66

====

# ASSAY_METHOD_TEXT: yeast transport mutant growth inhibition pilot in 384-well plates, post-Golgi transport modulator project (AID 636)
# RUN_CONDITIONS: absorbance 615 nm, about 18 h, stronger effect = higher value
Reported inhibition values for the following compounds.
API: value field is a number in %; no unit string.

// worked examples, inhibition included
COc1ccccc1S(=O)(=O)Cc1ccc(C(=O)N2CCN(c3ccc(C)cc3)C(C)C2)o1 (configuration not stated)	-1.07
CCOC(=O)c1ccc(NCc2nc3ccccc3[nH]2)cc1	0.93
CCC(C)(NC(=O)c1ccc(=O)[nH]c1)C(=O)NC1CCCC1 (configuration not stated)	-5.2
COc1ccc(NC(=O)CSc2nnc(-c3ccccc3)n2N)cc1	-7.87
Cc1cc(C)nc(NC(=O)c2cnc3sccn3c2=O)n1	-4.67
COc1ccc(OC)c(C2=NOC(C(=O)Nc3cc(C)nn3-c3ccccc3)C2)c1 (configuration not stated)	-2.56

# evaluate next
(Q) // returns reported inhibition for input COc1ccc(NC(=O)C2Cc3ccccc3C(=O)O2)cc1 (configuration not stated)
(A) -2.53

====

// reported viability for each item listed
# ASSAY_METHOD_TEXT: MRP1 drug-resistance reversers in H69AR cells – cell-based, doxorubicin co-treatment, pilot screen (AID 601)
# RUN_CONDITIONS: H69AR cells + 2 uM doxorubicin, CellTiter-Glo, 72 h; measured here: viability with 2 uM doxorubicin; at 10 µM; stronger effect = lower value
Could you give me the number in %? Just the number is fine.

Worked cases, viability given:
Cc1cc2ncc(-c3ccc(Cl)cc3)c(N)n2n1	83.1
C=CCOc1ccc(/C(CC)=N/O)c(OC)c1	90.9
CCSc1nnc(N2C(=O)CC(c3ccsc3)C3=C2CC(C)(C)CC3=O)s1 (stereo unspecified)	104
O=C(C1CCC(CNc2c(N3CCCCC3)c(=O)c2=O)CC1)N1CCc2ccccc2C1 (stereo unspecified)	82.3
COc1ccc(NS(=O)(=O)c2coc(C(N)=O)c2)cc1Cl	107

(Q) Name the recorded viability for CCCCc1cc(=O)oc2cc(OCC(=O)N(CC)CC)c(Cl)cc12 .
(A) 96.3

(Q) Entry CCOC(=O)c1ccc(NC(=O)Cn2cc3c(n2)CCC(C)C3)cc1 (stereo unspecified) has what viability?
(A) 99.5

(Q) So what's the measured viability for this one? CCOc1ccccc1C(=O)Nc1cc(=O)n(C)c(=O)n1C
(A) 89.9

(Q) # query: viability of entry CCS(=O)(=O)c1nc2ccccc2n1Cc1ccccc1Cl
(A) 83.6

(Q) Report viability for CC(C)C(CO)NC(=O)CC(=O)NC(CO)C(C)C (stereo unspecified) please.
(A) 81.4

(Q) // returns reported viability for input CCCN1CCN(CCCNC(=O)Cn2ncc3c4ccccc4n(C)c3c2=O)CC1
(A) 96.8

(Q) Can you look up the measured viability of Cn1c(=O)[nH]c(=O)c2c1nc(N1CCCCC1)n2CCSc1ncccn1 for me?
(A) 92.5

(Q) For the compound Cc1cnc(NC(=O)CSc2nnc(COc3c(C)cccc3C)o2)s1 , what viability is on record?
(A) 94

(Q) Item under review: Cc1cc(NC(=O)c2cccc(S(=O)(=O)N3CC(c4ccccc4)CC3=O)c2)no1 (stereo unspecified) . Reported viability?
(A) 91.3
